assay: Distribution coefficient, logD of the compound at pH 7.4; conditions: octanol/water
attribute measured: logD

structure string: C[C@@H]1Cc2c([nH]c3ccccc23)[C@@H](c2c(F)cc(OC3CN(CCCF)C3)cc2F)N1C(=O)C1(F)CC1
logD: 4.1
--
structure string: CC(=O)N1[C@H](c2c(F)cc(OCCN3CC(CF)C3)cc2F)c2[nH]c3ccccc3c2C[C@H]1C
logD: 2.5

Entry "C[C@@H]1Cc2c([nH]c3ccccc23)[C@@H](c2c(F)cc(OC3CN(CCCF)C3)cc2F)N1C(=O)C(C)(C)F" needs its logD filled in; supply it.
4

State, in one line, measured logD of "C[C@@H]1Cc2c([nH]c3ccccc23)[C@@H](c2c(F)cc(OCCN3CC(CF)C3)cc2F)N1C(=O)C(C)(C)C"
3.3

---

test: AUC in mouse at 10 mg/kg, po; assay type: ADME, organism-based; set-up: dose 10 mg/kg; conditions: in vivo
attribute measured: AUC
Write the quantity with the unit trailing the number.

Quickly give me recorded AUC for "C[C@@H]1Cc2c([nH]c3ccccc23)[C@@H](c2ccc(OCCN3CC(CF)C3)cc2)N1S(C)(=O)=O"
1.8 µM·h

---

assay: Volume of distribution at steady state in rat; format: ADME; conditions: in vivo, read-out: Vdss
In this section, each of the compounds is paired with its reported Vd.
Please respond with the number in L/kg and leave the unit unwritten.

Look over these answered cases.
structure string: C[C@@H]1Cc2c([nH]c3ccccc23)[C@@H](c2c(F)cc(OCCN3CC(CF)C3)cc2F)N1C(=O)C(C)(C)F
Vd (L/kg): 32
//
structure string: C[C@@H]1Cc2c([nH]c3ccccc23)[C@@H](c2ccc(OCCN3CC(CF)C3)cc2)N1S(C)(=O)=O
Vd (L/kg): 7.7
//
structure string: C[C@@H]1Cc2c([nH]c3ccccc23)[C@@H](c2ccc(OCCN3CC(CF)C3)cc2F)N1S(C)(=O)=O
Vd (L/kg): 9.6

Item "C[C@@H]1Cc2c([nH]c3ccccc23)[C@@H](c2c(F)cc(OCCN3CC(CF)C3)cc2F)N1S(C)(=O)=O" : provide Vd
17.3

---

assay: in vitro; conditions: dog, MDCK
The entries below are paired with their reported Papp A→B.
Value expressed in ×10⁻⁶ cm/s; do not type the unit.

Below, each entry is followed by its recorded Papp A→B result.
structure string: C[C@@H]1Cc2c([nH]c3ccccc23)[C@@H](c2c(F)cc(OCCN3CC(CF)C3)cc2F)N1C(=O)C(C)(C)F
unit tag: ×10⁻⁶ cm/s
Papp A→B: 1
//
structure string: C[C@@H]1Cc2c([nH]c3ccccc23)[C@@H](c2c(F)cc(OCCN3CC(CF)C3)cc2F)N1S(C)(=O)=O
unit tag: ×10⁻⁶ cm/s
Papp A→B: 4
//
structure string: C[C@@H]1Cc2c([nH]c3ccccc23)[C@@H](c2ccc(OCCN3CC(CF)C3)cc2F)N1S(C)(=O)=O
unit tag: ×10⁻⁶ cm/s
Papp A→B: 4
//
structure string: C[C@@H]1Cc2c([nH]c3ccccc23)[C@@H](c2ccc(OCCN3CC(CF)C3)cc2)N1S(C)(=O)=O
unit tag: ×10⁻⁶ cm/s
Papp A→B: 5

Tell me its Papp A→B given "C[C@@H]1Cc2c([nH]c3ccccc23)[C@@H](c2c(F)cc(OC3CN(CCCF)C3)cc2F)N1CC(C)(C)F" as the entry.
0.4
